STUDY_TARGET: MPO (purified from human polynuclear leukocytes) (Homo sapiens, UniProt P05164)
Construct: purified from human polynuclear leukocytes; purchased Calbiochem/EMD Biosciences; host or cells: human polynuclear leukocytes (natural source)
Sequence (P05164 279-745 limits assumed): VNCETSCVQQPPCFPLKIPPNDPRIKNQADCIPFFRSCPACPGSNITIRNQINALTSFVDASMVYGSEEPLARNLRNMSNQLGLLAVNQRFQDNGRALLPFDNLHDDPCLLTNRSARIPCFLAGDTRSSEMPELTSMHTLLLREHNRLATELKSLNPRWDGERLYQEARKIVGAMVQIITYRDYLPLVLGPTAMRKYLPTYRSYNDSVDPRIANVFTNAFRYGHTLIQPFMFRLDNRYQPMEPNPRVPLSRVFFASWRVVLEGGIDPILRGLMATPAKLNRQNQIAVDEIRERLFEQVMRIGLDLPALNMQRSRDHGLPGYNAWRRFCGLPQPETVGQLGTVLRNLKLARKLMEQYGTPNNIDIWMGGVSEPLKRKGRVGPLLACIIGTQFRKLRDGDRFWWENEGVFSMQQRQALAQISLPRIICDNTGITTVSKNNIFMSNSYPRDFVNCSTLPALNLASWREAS
Sequence (P05164 165-273 limits assumed): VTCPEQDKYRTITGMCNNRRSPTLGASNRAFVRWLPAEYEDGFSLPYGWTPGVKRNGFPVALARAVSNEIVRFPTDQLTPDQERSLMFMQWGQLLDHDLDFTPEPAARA
ASSAY_INFO: MPO Amplex Red Activity Assay
Type: biochemical
MEASUREMENT_SETUP: Table 1, 2 μM H2O2, pH 7.4
Structures can show the parent of a compound that is named as a salt.
This section presents compounds with their documented MPO kinact/Ki values.

compound="COc1ccc(Cl)cc1-c1cc(=O)[nH]c(=S)n1CCNC(=O)CN [Example 135, hydrochloride]" study_target="MPO (purified from human polynuclear leukocytes) (Homo sapiens, UniProt P05164)" assay_result="6750 1/s per M"

Q: Identify measured MPO kinact/Ki corresponding to COCCn1c(-c2ccn[nH]2)cc(=O)[nH]c1=S
Ans: 1560 1/s per M

Q: Identify measured MPO kinact/Ki corresponding to O=c1cc(-c2cc3ccccc3s2)n(CCO)c(=S)[nH]1
Ans: 6430 1/s per M

Q: Identify measured MPO kinact/Ki corresponding to COc1ccc(-c2cc(=O)[nH]c(=S)n2CC(C)(C)CO)c(OC)c1
Ans: 3280 1/s per M

Q: Identify measured MPO kinact/Ki corresponding to COc1ccccc1-c1cc(=O)[nH]c(=S)n1CCCN [Example 18, hydrochloride]
Ans: 8280 1/s per M

Q: Identify measured MPO kinact/Ki corresponding to COCCn1c(-c2cc3ccccc3cc2OC)cc(=O)[nH]c1=S
Ans: 11400 1/s per M

Q: Identify measured MPO kinact/Ki corresponding to COCCn1c(-c2c[nH]c3ncccc23)cc(=O)[nH]c1=S
Ans: 4110 1/s per M

Q: Identify measured MPO kinact/Ki corresponding to NCCn1c(-c2ccccc2OCC(N)=O)cc(=O)[nH]c1=S [Example 272, trifluoroacetate]
Ans: 3160 1/s per M

Q: Identify measured MPO kinact/Ki corresponding to NCCn1c(-c2cccc3ccoc23)cc(=O)[nH]c1=S [Example 143, hydrochloride]
Ans: 8110 1/s per M

Q: Identify measured MPO kinact/Ki corresponding to NC(=O)Cn1c(-c2cc3ccccc3s2)cc(=O)[nH]c1=S
Ans: 4250 1/s per M

Q: Identify measured MPO kinact/Ki corresponding to COCCn1c(-c2nc(C)ccc2OC)cc(=O)[nH]c1=S
Ans: 2230 1/s per M

Q: Identify measured MPO kinact/Ki corresponding to COCCn1c(-c2ccccc2O)cc(=O)[nH]c1=S
Ans: 4230 1/s per M

Q: Identify measured MPO kinact/Ki corresponding to COCCn1c(-c2cc(OC)c(OC)c(OC)c2)cc(=O)[nH]c1=S
Ans: 817 1/s per M

Q: Identify measured MPO kinact/Ki corresponding to COc1ccc(-c2cc(=O)[nH]c(=S)n2CCCN(C)C)c(OC)c1
Ans: 2420 1/s per M

Q: Identify measured MPO kinact/Ki corresponding to NCCCn1c(-c2cccc3[nH]ccc23)cc(=O)[nH]c1=S [Example 30, trifluoroacetate]
Ans: 5870 1/s per M

Q: Identify measured MPO kinact/Ki corresponding to COCCn1c(-c2cccs2)cc(=O)[nH]c1=S
Ans: 1180 1/s per M

###

This section presents compounds with their documented MPO kinact/Ki values.
STUDY_TARGET: MPO (purified from human polynuclear leukocytes) (Homo sapiens)
Construct: purified from human polynuclear leukocytes; purchased Calbiochem/EMD Biosciences; host or cells: human polynuclear leukocytes (natural source)
ASSAY_INFO: MPO Amplex Red Activity Assay
Format: biochemical
MEASUREMENT_SETUP: Table 1A, 2 μM H2O2, pH 7.4

molecule_smiles=COc1ccc(-c2cc(=O)[nH]c(=S)n2CC(=O)NC(C)(C)CN)c(OC)c1 assay_result="1410 1/s per M"

Q: Identify measured MPO kinact/Ki corresponding to COc1ccc(OC)c(-c2cc(=O)[nH]c(=S)n2CCNC(=O)CN)c1
Ans: 6720 1/s per M

Q: Identify measured MPO kinact/Ki corresponding to COc1ccc(Cl)cc1-c1cc(=O)[nH]c(=S)n1CCCNC(=N)NCC(C)(F)F
Ans: 16000 1/s per M

Q: Identify measured MPO kinact/Ki corresponding to COc1ccc(Cl)cc1-c1cc(=O)[nH]c(=S)n1CCCNC(=N)N1CCCC1
Ans: 7730 1/s per M

Q: Identify measured MPO kinact/Ki corresponding to COc1ccc(-c2cc(=O)[nH]c(=S)n2CCC#N)c(OC)c1
Ans: 9890 1/s per M

Q: Identify measured MPO kinact/Ki corresponding to COc1ccc(-c2cc(=O)[nH]c(=S)n2CCN)cc1OC
Ans: 2280 1/s per M

Q: Identify measured MPO kinact/Ki corresponding to NCCNC(=O)Cn1c(-c2cc(F)ccc2OCCO)cc(=O)[nH]c1=S
Ans: 5970 1/s per M

Q: Identify measured MPO kinact/Ki corresponding to COc1ccc(-c2cc(=O)[nH]c(=S)n2CC(=O)N[C@H]2CC[C@@H]2N)c(OC)c1
Ans: 9200 1/s per M

Q: Identify measured MPO kinact/Ki corresponding to COc1ccc(Cl)cc1-c1cc(=O)[nH]c(=S)n1C[C@H](O)CO
Ans: 2660 1/s per M
